Where do these numbers come from? They come from paper PMC5581314.

system-name: LipA (Acinetobacter baumannii)
Construct: gene lip; secreted LipA from plasmid-encoded lipBA, in culture supernatant
assay-info: 4-nitrophenyl myristate lipase assay; IC50 in whole culture, direct inhibition by cell-free supernatant counter-screen
Format: cell-based
measurement-parameters: read-out: IC50
recorded-metric: IC50 (µM)
Numbers only, in µM.

Examples from the recorded data:
chemical-structure: CNCCCC1c2ccccc2C=Cc2ccccc21
IC50 [µM]: 10

chemical-structure: CN(CCCN1c2ccccc2CCc2ccccc21)CC(=O)c1ccc(Cl)cc1
IC50 [µM]: 21

chemical-structure: CNCCC=C1c2ccccc2CCc2ccccc21
IC50 [µM]: 14.5

Here is another compound to look at.
Print LipA (Acinetobacter baumannii) IC50 for "CNCCC=C1c2ccccc2C=Cc2ccccc21" .
16
